- Tested on: Pseudomonas aeruginosa
- method-description: Antibacterial growth inhibition, P. aeruginosa
- Type: cell-based
- condition-notes: P. aeruginosa Strain 19606
Could you please report measured inhibition at 32 µg/mL for the items listed next?
Entry rule: numbers only, all in %.

Ask: Under Pseudomonas aeruginosa: inhibition at 32 µg/mL value of C=C(C)[C@@H]1CC[C@]2(C(=O)OC)CC[C@]3(C)[C@H](CC[C@@H]4[C@@]5(C)C/C(=C/NC(N)=S)C(=O)C(C)(C)[C@@H]5CC[C@]43C)[C@@H]12 [Compound 26] ?
Reply: -4.64

Ask: Under Pseudomonas aeruginosa: inhibition at 32 µg/mL value of C=C(C)[C@@H]1CC[C@]2(C(=O)N3CCCNCC3)CC[C@]3(C)[C@H](CC[C@@H]4[C@@]5(C)CCC(=O)C(C)(C)[C@@H]5CC[C@]43C)[C@@H]12 [Compound 2] ?
Reply: 8.34

Ask: Under Pseudomonas aeruginosa: inhibition at 32 µg/mL value of C=C(C)[C@@H]1CC[C@]2(C(=O)OC)CC[C@]3(C)[C@H](CC[C@@H]4[C@@]5(C)C/C(=C/NC(N)=O)C(=O)C(C)(C)[C@@H]5CC[C@]43C)[C@@H]12 [Compound 25] ?
Reply: -8.92

Ask: Under Pseudomonas aeruginosa: inhibition at 32 µg/mL value of C=C(C)[C@@H]1CC[C@]2(C(=O)NCCNCCN)CC[C@]3(C)[C@H](CC[C@@H]4[C@@]5(C)CCC(=O)C(C)(C)[C@@H]5CC[C@]43C)[C@@H]12 [Compound 12] ?
Reply: 7.72

====

Could you please report measured inhibition at 32 µg/mL for the items listed next?
- Tested on: Klebsiella pneumonia
- method-description: Antibacterial growth inhibition, K. pneumonia
- Assay type: cell-based
- condition-notes: Klebsiella pneumoniae, ATCC700603, K. pneumonia Strain ATCC 700603
Entry rule: numbers only, all in %.

Ask: Under Klebsiella pneumonia: inhibition at 32 µg/mL value of `C=C(C)[C@@H]1CC[C@]2(C(=O)OC)CC[C@]3(C)[C@H](CC[C@@H]4[C@@]5(C)C/C(=C/NC(N)=S)C(=O)C(C)(C)[C@@H]5CC[C@]43C)[C@@H]12` ?
Reply: -3.89

Ask: Under Klebsiella pneumonia: inhibition at 32 µg/mL value of `C=C(C)[C@@H]1CC[C@]2(C(=O)NCCNCCN)CC[C@]3(C)[C@H](CC[C@@H]4[C@@]5(C)CCC(=O)C(C)(C)[C@@H]5CC[C@]43C)[C@@H]12` ?
Reply: 9.2

Ask: Under Klebsiella pneumonia: inhibition at 32 µg/mL value of `C=C(C)[C@@H]1CC[C@]2(C(=O)N3CCCNCC3)CC[C@]3(C)[C@H](CC[C@@H]4[C@@]5(C)CCC(=O)C(C)(C)[C@@H]5CC[C@]43C)[C@@H]12` ?
Reply: 0.98

Ask: Under Klebsiella pneumonia: inhibition at 32 µg/mL value of `C=C(C)[C@@H]1CC[C@]2(C(=O)OC)CC[C@]3(C)[C@H](CC[C@@H]4[C@@]5(C)C/C(=C/NC(N)=O)C(=O)C(C)(C)[C@@H]5CC[C@]43C)[C@@H]12` ?
Reply: 2.44

====

Could you please report measured activity at 10 µM for the items listed next?
- Tested on: SW-620
- method-description: NCI-60 SRB screen: colon cancer SW-620
- Type: cell-based
- condition-notes: Homo sapiens, 48 h; SW-620; single dose 10 µM; read-out: Percentage Cell Growth
Remember to put the unit after the number in your answer.

Ask: Dear colleague, I am looking for the recorded activity at 10 µM of the following compound: `C=C(C)[C@@H]1CC[C@]2(C(=O)NCCNCCNCCN)CC[C@]3(C)[C@H](CC[C@@H]4[C@@]5(C)CCC(=O)C(C)(C)[C@@H]5CC[C@]43C)[C@@H]12`
Reply: -76.7%

Ask: Dear colleague, I am looking for the recorded activity at 10 µM of the following compound: `C=C(C)[C@@H]1CC[C@]2(C(=O)NCCN(CCNC(=O)OC(C)(C)C)C(=O)OC(C)(C)C)CC[C@]3(C)[C@H](CC[C@@H]4[C@@]5(C)CCC(=O)C(C)(C)[C@@H]5CC[C@]43C)[C@@H]12`
Reply: 28.8%

Ask: Dear colleague, I am looking for the recorded activity at 10 µM of the following compound: `C=C(C)[C@@H]1CC[C@]2(C(=O)NCCCCCCN(CCCN)CCCN)CC[C@]3(C)[C@H](CC[C@@H]4[C@@]5(C)CC[C@H](OCCCN)C(C)(C)[C@@H]5CC[C@]43C)[C@@H]12`
Reply: 7.33%

====

- Test system: SK-MEL-28
- method-description: NCI-60 SRB screen: melanoma SK-MEL-28
- Type: cell-based, human
- condition-notes: Homo sapiens; SK-MEL-28; five concentrations, 48 h, SRB; read-out: GI50
The label is fulfilled for GI50 below 20 µM and not fulfilled for GI50 equal to or exceeding 20 µM.

Ask: Is 20 µM strictly greater than the compound's reported GI50? compound: `C=C(C)[C@@H]1CC[C@]2(C(=O)NCCCN)CC[C@]3(C)[C@H](CC[C@@H]4[C@@]5(C)CCC(=O)C(C)(C)[C@@H]5CC[C@]43C)[C@@H]12`
Reply: not fulfilled

Ask: Is 20 µM strictly greater than the compound's reported GI50? compound: CC(=O)OCC12CCC(C(C)C(N)=O)C1C1CCC3C4(C)CCC(OC(C)=O)C(C)(C)C4CCC3(C)C1(C)CC2 (centres unmarked)
Reply: fulfilled

Ask: Is 20 µM strictly greater than the compound's reported GI50? compound: `C=C(C)[C@@H]1CC[C@]2(C(=O)OC)CC[C@]3(C)[C@H](CC[C@@H]4[C@@]5(C)CCC(=NOCCC(=NOCCC#N)NCCC#N)C(C)(C)[C@@H]5CC[C@]43C)[C@@H]12`
Reply: fulfilled

Ask: Is 20 µM strictly greater than the compound's reported GI50? compound: `C=C(C)[C@@H]1CC[C@]2(C(=O)NCCNCCNCCN)CC[C@]3(C)[C@H](CC[C@@H]4[C@@]5(C)CCC(=O)C(C)(C)[C@@H]5CC[C@]43C)[C@@H]12`
Reply: fulfilled

Ask: Is 20 µM strictly greater than the compound's reported GI50? compound: `C=C(C)[C@@H]1CC[C@]2(C(=O)NCCNCCNCCN)CC[C@]3(C)[C@H](CC[C@@H]4[C@@]5(C)CC[C@H](O)C(C)(C)[C@@H]5CC[C@]43C)[C@@H]12`
Reply: fulfilled

====

- System: UACC-62
- method-description: NCI-60 SRB screen: melanoma UACC-62
- Assay type: cell-based, human
- condition-notes: Homo sapiens; UACC-62; five concentrations, 48 h, SRB; read-out: GI50
The label is Yes for GI50 below 5 µM and No for GI50 equal to or exceeding 5 µM.

Ask: Is 5 µM strictly greater than the compound's reported GI50? compound: `C=C(C)[C@@H]1CC[C@]2(C(=O)NCCCN)CC[C@]3(C)[C@H](CC[C@@H]4[C@@]5(C)CCC(=O)C(C)(C)[C@@H]5CC[C@]43C)[C@@H]12`
Reply: No

Ask: Is 5 µM strictly greater than the compound's reported GI50? compound: `C=C(C)[C@@H]1CC[C@]2(C(=O)NCCNCCNCCN)CC[C@]3(C)[C@H](CC[C@@H]4[C@@]5(C)CCC(=O)C(C)(C)[C@@H]5CC[C@]43C)[C@@H]12`
Reply: No

Ask: Is 5 µM strictly greater than the compound's reported GI50? compound: `C=C(C)[C@@H]1CC[C@]2(C(=O)NCCNCCNCCN)CC[C@]3(C)[C@H](CC[C@@H]4[C@@]5(C)CC[C@H](O)C(C)(C)[C@@H]5CC[C@]43C)[C@@H]12`
Reply: No

Ask: Is 5 µM strictly greater than the compound's reported GI50? compound: `C=C(C)[C@@H]1CC[C@]2(C(=O)OC)CC[C@]3(C)[C@H](CC[C@@H]4[C@@]5(C)CCC(=NOCCC(=NOCCC#N)NCCC#N)C(C)(C)[C@@H]5CC[C@]43C)[C@@H]12`
Reply: Yes

Ask: Is 5 µM strictly greater than the compound's reported GI50? compound: CC(=O)OCC12CCC(C(C)C(N)=O)C1C1CCC3C4(C)CCC(OC(C)=O)C(C)(C)C4CCC3(C)C1(C)CC2 (centres unmarked)
Reply: No

====

- Tested on: NSCL cancer subpanel
- method-description: NCI-60 screen, subpanel NSCL cancer
Please mark Satisfied if the recorded Selectivity, ratio MID a: MID b is equal to or greater than 1, and Not satisfied if it falls below.

Ask: Is the recorded value of Selectivity, ratio MID a: MID b equal to or greater than 1 for this molecule? CC(=O)OCC12CCC(C(C)C(N)=O)C1C1CCC3C4(C)CCC(OC(C)=O)C(C)(C)C4CCC3(C)C1(C)CC2 (stereo not drawn) [Compound 4]
Reply: Satisfied

Ask: Is the recorded value of Selectivity, ratio MID a: MID b equal to or greater than 1 for this molecule? C=C(C)[C@@H]1CC[C@]2(C(=O)NCCNCCNCCN)CC[C@]3(C)[C@H](CC[C@@H]4[C@@]5(C)CCC(=O)C(C)(C)[C@@H]5CC[C@]43C)[C@@H]12 [Compound 11]
Reply: Satisfied

Ask: Is the recorded value of Selectivity, ratio MID a: MID b equal to or greater than 1 for this molecule? C=C(C)[C@@H]1CC[C@]2(C(=O)OC)CC[C@]3(C)[C@H](CC[C@@H]4[C@@]5(C)CCC(=NOCCC(=NOCCC#N)NCCC#N)C(C)(C)[C@@H]5CC[C@]43C)[C@@H]12 [Compound 21]
Reply: Not satisfied

Ask: Is the recorded value of Selectivity, ratio MID a: MID b equal to or greater than 1 for this molecule? C=C(C)[C@@H]1CC[C@]2(C(N)=O)CC[C@]3(C)[C@H](CC[C@@H]4[C@@]5(C)CC[C@H](O)C(C)(C)[C@@H]5CC[C@]43C)[C@@H]12 [Compound 5]
Reply: Satisfied

Ask: Is the recorded value of Selectivity, ratio MID a: MID b equal to or greater than 1 for this molecule? C=C(C)[C@@H]1CC[C@]2(C(=O)NCCCN)CC[C@]3(C)[C@H](CC[C@@H]4[C@@]5(C)CCC(=O)C(C)(C)[C@@H]5CC[C@]43C)[C@@H]12 [Compound 10]
Reply: Satisfied
